CONDITION_INFO: in ethanol, 308.15 K

[
  {
    "ITEM_SMILES": "Cl.Nc1ccccc1",
    "solubility (mole fraction)": 0.115
  }
]

---

CONDITION_INFO: in methanol, 318.15 K

[
  {
    "ITEM_SMILES": "Cl.Nc1ccccc1",
    "solubility (mole fraction)": 0.208
  }
]

---

CONDITION_INFO: in n-propanol, 298.15 K

[
  {
    "ITEM_SMILES": "Cl.Nc1ccccc1",
    "solubility (mole fraction)": 0.057
  }
]

---

CONDITION_INFO: in n-propanol, 328.15 K

[
  {
    "ITEM_SMILES": "Cl.Nc1ccccc1",
    "solubility (mole fraction)": 0.098
  }
]

---

CONDITION_INFO: in ethanol, 318.15 K

[
  {
    "ITEM_SMILES": "Cl.Nc1ccccc1",
    "solubility (mole fraction)": 0.134
  }
]

---

CONDITION_INFO: in methanol, 328.15 K

[
  {
    "ITEM_SMILES": "Cl.Nc1ccccc1",
    "solubility (mole fraction)": 0.23
  }
]

---

CONDITION_INFO: in ethanol, 288.15 K

[
  {
    "ITEM_SMILES": "Cl.Nc1ccccc1",
    "solubility (mole fraction)": 0.082
  }
]
